From: patent US11612602B2

# Test system: HeLa cells
# Run description: HeLa cell viability assay (cytotoxicity, xCelligence RTCA)
# Type: cell-based
# Conditions: Homo sapiens, 72 h, 3 days
# Description: All cell lines were obtained from the American Type Culture Collection and were maintained at 37° C. with 5% CO2, in media supplemented with 10% fetal bovine serum and 1% L-glutamine-penicillin-streptomycin. H1975, HCC827 and A549 cells were cultured with RPMI 1640 media. A431 and Hela cells were maintained in Dulbecco's Modification of Eagle's Medium. […] Cells were seeded in 96-well E-Plate devices, and attachment, spreading, and proliferation were monitored using the xCelligence RTCA system. […]
This listing pairs compounds with measured IC50.
Value kind: IC50

> print(dat)
                                   compound  test.value
1  C=CC(=O)Nc1cccc(C(F)(F)c2nc(Nc3ccc(N4CCN(C)CC4)cc3OC)nc3[nH]cnc23)c1 [Compound 13b]     > 20 µM
2  C=CC(=O)Nc1cccc(Oc2nc(Nc3ccc(N4CCN(C)CC4)cc3OC)ncc2Cl)c1 [WZ4002, reference compound]    > 6.7 µM
3  C=CC(=O)Nc1cccc(C(F)(F)c2nc(Nc3ccc(N4CCN(C)CC4)cc3)nc3[nH]cnc23)c1 [Compound 13a]    > 2.2 µM
4  C=CC(=O)Nc1cccc(C(F)(F)c2nc(Nc3ccc(N4CCN(C)CC4)cc3)ncc2F)c1 [Compound 19]    > 6.7 µM

---

# Tested system: EGFR (T790M/L858R), H1975 cell (Homo sapiens, UniProt P00533, L858R/T790M)
# Construct: endogenous in cells; host or cells: H1975
# Sequence (P00533 25-1210 T790M/L858R): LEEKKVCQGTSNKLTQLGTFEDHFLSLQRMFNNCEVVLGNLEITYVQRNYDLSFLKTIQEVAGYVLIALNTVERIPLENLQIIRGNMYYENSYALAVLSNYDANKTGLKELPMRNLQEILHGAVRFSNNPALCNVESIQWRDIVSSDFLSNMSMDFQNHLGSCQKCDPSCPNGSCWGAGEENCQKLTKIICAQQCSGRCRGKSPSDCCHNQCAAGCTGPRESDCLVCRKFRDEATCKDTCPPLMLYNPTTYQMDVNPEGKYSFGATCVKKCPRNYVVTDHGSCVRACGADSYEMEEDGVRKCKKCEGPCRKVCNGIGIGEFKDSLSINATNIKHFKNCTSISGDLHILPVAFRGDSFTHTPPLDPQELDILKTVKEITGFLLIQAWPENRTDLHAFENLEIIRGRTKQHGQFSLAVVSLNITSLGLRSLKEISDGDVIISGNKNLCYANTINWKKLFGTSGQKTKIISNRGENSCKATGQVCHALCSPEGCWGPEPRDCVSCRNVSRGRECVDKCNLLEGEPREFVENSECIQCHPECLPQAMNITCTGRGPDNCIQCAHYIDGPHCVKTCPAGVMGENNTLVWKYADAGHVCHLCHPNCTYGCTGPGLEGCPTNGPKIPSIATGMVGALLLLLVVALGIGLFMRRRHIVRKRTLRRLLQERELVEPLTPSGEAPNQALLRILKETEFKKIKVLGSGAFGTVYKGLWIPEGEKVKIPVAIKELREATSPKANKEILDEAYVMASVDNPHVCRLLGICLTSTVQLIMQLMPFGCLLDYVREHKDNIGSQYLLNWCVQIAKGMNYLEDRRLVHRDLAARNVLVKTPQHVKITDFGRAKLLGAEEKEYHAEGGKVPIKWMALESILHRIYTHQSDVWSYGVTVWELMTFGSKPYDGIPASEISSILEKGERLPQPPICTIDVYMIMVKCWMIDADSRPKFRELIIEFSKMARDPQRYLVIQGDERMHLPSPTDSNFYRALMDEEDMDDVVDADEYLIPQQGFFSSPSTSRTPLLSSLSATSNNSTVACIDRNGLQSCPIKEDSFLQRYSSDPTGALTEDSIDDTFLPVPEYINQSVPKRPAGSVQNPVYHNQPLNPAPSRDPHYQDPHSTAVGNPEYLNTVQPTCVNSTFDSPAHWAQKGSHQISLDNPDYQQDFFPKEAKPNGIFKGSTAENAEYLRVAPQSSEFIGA
# Run description: ELISA assay of EGFR phosphorylation in H1975 cells
# Assay type: cell-based
# Conditions: ratio of IC50 A431 cell (WT) to IC50 H1975 cell (T790M/L858R)
Threshold check on Selectivity (WT/T790M): at or above 70 gives True, strictly below gives False.

> print(dat)
                                    compound  assigned.label
 1  C=CC(=O)Nc1cccc(C(F)(F)c2nc(Nc3ccc(N4CCN(C)CC4)nc3)ncc2F)c1            True
 2  C=CC(=O)Nc1cccc(C(F)(F)c2nc(Nc3ccc(N4CCN(C)CC4)c(F)c3)ncc2OC)c1            True
 3  C=CC(=O)Nc1cccc(C(F)(F)c2nc(Nc3ccc(N4CCN(C)CC4)cc3)ncc2Cl)c1           False
 4  C=CC(=O)Nc1cccc(C(F)(F)c2nc(Nc3ccc(N4CCN(C)CC4)cc3OC)ncc2OC)c1            True
 5  C=CC(=O)Nc1cccc(C(F)(F)c2nc(Nc3ccc(N4CCN(C)CC4)cc3)ncc2C)c1            True
 6  C=CC(=O)Nc1cccc(C(F)(F)c2nc(Nc3ccc(N4CCN(C)CC4)c(F)c3)nc3[nH]ccc23)c1 [Compound 28c]            True
 7  C=CC(=O)Nc1cccc(C(F)(F)c2nc(Nc3ccc(N4CCN(C)CC4)nc3)ncc2OC)c1            True
 8  C/C=C/C(=O)Nc1cccc(C(F)(F)c2nc(Nc3ccc(N4CCN(C)CC4)cc3)ncc2F)c1           False
 9  C=CC(=O)Nc1cccc(C(F)(F)c2nc(Nc3ccc(N4CCN(C)CC4)cc3)nc3[nH]cnc23)c1 [Compound 13a]            True
10  C=CC(=O)Nc1cccc(C(F)(F)c2nc(Nc3ccc(N4CCN(C)CC4)cc3OC)nc3[nH]ccc23)c1 [Compound 28d]            True
11  C=CC(=O)Nc1cccc(C(F)(F)c2nc(Nc3ccc(N4CCN(C)CC4)cc3OC)nc3[nH]cnc23)c1 [Compound 13b]           False
12  C=CC(=O)Nc1cccc(C(F)(F)c2nc(Nc3ccc(N4CCN(C)CC4)cc3)nc3c2ccn3CO)c1 [Compound 27a]            True
13  C=CC(=O)Nc1cccc(C(F)(F)c2nc(Nc3ccc(N4CCN(C)CC4)c(F)c3)ncc2F)c1           False
14  C=CC(=O)Nc1cccc(C(F)(F)c2nc(Nc3ccc(N4CCN(CC)CC4)cc3)ncc2F)c1           False
